Cited source: PubChem BioAssay AID2284363

measurement-target: Nuclear factor erythroid 2-related factor 2 (Homo sapiens) (UniProt Q16236)
Sequence (Q16236 whole entry, looked up): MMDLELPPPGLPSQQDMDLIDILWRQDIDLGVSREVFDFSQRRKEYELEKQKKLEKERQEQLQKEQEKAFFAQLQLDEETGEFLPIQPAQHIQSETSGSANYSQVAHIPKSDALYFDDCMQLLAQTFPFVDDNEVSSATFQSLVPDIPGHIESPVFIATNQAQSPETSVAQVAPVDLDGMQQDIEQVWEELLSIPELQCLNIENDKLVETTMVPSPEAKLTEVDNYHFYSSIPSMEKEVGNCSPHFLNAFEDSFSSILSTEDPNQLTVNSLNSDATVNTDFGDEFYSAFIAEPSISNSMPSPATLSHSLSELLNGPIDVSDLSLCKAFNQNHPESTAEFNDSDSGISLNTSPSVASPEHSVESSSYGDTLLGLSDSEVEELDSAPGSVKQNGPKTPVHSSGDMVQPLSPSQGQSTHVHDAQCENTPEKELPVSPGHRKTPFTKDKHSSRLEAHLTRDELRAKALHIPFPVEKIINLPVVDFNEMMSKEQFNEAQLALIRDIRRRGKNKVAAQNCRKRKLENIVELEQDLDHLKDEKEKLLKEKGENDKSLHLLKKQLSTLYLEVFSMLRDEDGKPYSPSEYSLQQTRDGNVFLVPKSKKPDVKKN
procedure-text: ERF_US_NR_hNFE2L2: Eurofins (ERF) Cell Based Nuclear Translocation LeadHunter Assay for human Transcription Factor Keap1-Nrf2 Agonism
Calls of active or inactive are those of the source. The calls were made as follows: active = hit-call score of the fitted dose curve at least 0.9, where 1 is the maximum; inactive = score below 0.9.
Your reply should match one of these outcome classes. yes (1) for active, no (0) for inactive

Fill in: this test's call for "O=C(O)C(F)(F)C(F)(F)C(F)(F)C(F)(F)C(F)(F)C(F)(F)C(F)(F)C(F)(F)Cl" is ___ no (0)

Record request — test call for "O=C(O)CCC(F)(F)C(F)(F)C(F)(F)C(F)(F)C(F)(F)F" no (0)

Please indicate how the test categorized "OCCC(F)(F)C(F)(F)C(F)(F)C(F)(F)C(F)(F)C(F)(F)C(F)(F)C(F)(F)F" . yes (1)

Test call, this compound: "O=C(O)C(F)(F)C(F)(F)C(F)(F)F" no (0)
